# Assay overview: Chemosensitization of MMR-deficient human A2780/CP70 cells after 5 days by MTT assay
# Format: functional, cell-based
# Conditions: A2780/CP70, 120 h
Measurement label: IC50

Req: What value of IC50 has been recorded for this entry: Cn1nnc2c(C(N)=O)ncn2c1=O [TEMOZOLOMIDE]
Resp: > 250 µM

----------
# Test system: A2058
# Assay overview: Chemosensitization of human A2058 cells after 5 days by MTT assay
# Format: functional, cell-based
# Conditions: A2058, 120 h, in the assay text read “Cyquant assay” for “MTT assay”
A collection of molecules and their measured IC50
// units = µM; emit number, no label

Here is how some molecules turned out for IC50.
# Molecule, IC50 [µM]
rows = [
    ("NC(=O)c1ncn2c(=O)n(CCN(CCn3nnc4c(C(N)=O)ncn4c3=O)c3ccc(F)cc3)nnc12", 5.5),
    ("Cn1nnc2c(C(N)=O)ncn2c1=O [TEMOZOLOMIDE]", 35.5),
]

Okay, now this molecule:
Req: Bench note: what IC50 did COc1ccc(N(CCn2nnc3c(C(N)=O)ncn3c2=O)CCn2nnc3c(C(N)=O)ncn3c2=O)cc1 show?
Resp: 2.5
